# assayedTarget: T1, human alpha CGRP (SEQ ID NO: 80) (human, not fully specified)
# T1 peptide: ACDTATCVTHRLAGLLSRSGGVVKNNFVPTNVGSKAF
# assayText: cell-based or functional assay
metricName: cAMP assay IC50, SK-N-MC cells (nM)
Unit nM implied. Number only.

Value of measured cAMP assay IC50, SK-N-MC cells for the entry cysteine-free lipocalin mutein SEQ ID NO: 30 (designed binder, biotinylated by NHS chemistry for capture in SPR) QDSTSDLIPAPPLSKVPLQQNFQDNQFQGKWYVVGRAGNDVLREDKDPEKMEATIYELKEDKSYNVTDVGFVQKRYMYVTHTFVPGSQPGEFTLGNIESYPGVTSALVRVVSTDYNQHAMVFVKLVKQNRELFEITLYGRTKELTSELKENFIRFSKSLGLPENHIVFPVPIDQIDGSAWSHPQFEK : 0.22

Value of measured cAMP assay IC50, SK-N-MC cells for the entry cysteine-free lipocalin mutein SEQ ID NO: 39 (designed binder, biotinylated by NHS chemistry for capture in SPR) QDSTSDLIPAPPLSKVPLQQNFQDNQFQGKWYVVGWAGNTLLREDKDPIKMQAMIYELKEDKSYNVTWVYFADKKKNYHIETFVPGSQPGEFTLGTIKSYPGETPILVRVVSTNYNQHAMVFFKGVNQNREIFEIVLYGRTKELTNELKENFIRFSKSLGLPENHIVFPVPIDQDIDGSAWSHPQFEK : 0.21

Value of measured cAMP assay IC50, SK-N-MC cells for the entry lipocalin mutein SEQ ID NO: 17 (designed binder, biotinylated by NHS chemistry for capture in SPR) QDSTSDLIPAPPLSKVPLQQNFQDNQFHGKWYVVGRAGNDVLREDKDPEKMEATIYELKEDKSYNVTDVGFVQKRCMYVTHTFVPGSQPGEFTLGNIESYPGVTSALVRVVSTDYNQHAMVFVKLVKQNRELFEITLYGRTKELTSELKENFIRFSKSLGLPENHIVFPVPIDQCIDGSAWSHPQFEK : 0.09

Value of measured cAMP assay IC50, SK-N-MC cells for the entry cysteine-free lipocalin mutein SEQ ID NO: 36 (designed binder, biotinylated by NHS chemistry for capture in SPR) QDSTSDLIPAPPLSKVPLQQNFQDNQFQGKWYVVGWAGNTLLREDKDPIKMQAMIYELKEDKSYNVTWVYFADKKRNYHIETFVPGSQPGEFTLGTIKSYPGETPILVRVVSTNYNQHAMVFFKGVNQNREIFEIVLYGRTKELTNELKENFIRFSKSLGLPENHIVFPVPIDQWIDGSAWSHPQFEK : 0.25

Value of measured cAMP assay IC50, SK-N-MC cells for the entry cysteine-free lipocalin mutein SEQ ID NO: 40 (designed binder, biotinylated by NHS chemistry for capture in SPR) QDSTSDLIPAPPLSKVPLQQNFQDNQFQGKWYVVGWAGNTLLREDKDPIKMQAMIYELKEDKSYNVTWVYFADKKFNYHIETFVPGSQPGEFTLGTIKSYPGETPILVRVVSTNYNQHAMVFFKGVNQNREIFEIVLYGRTKELTNELKENFIRFSKSLGLPENHIVFPVPIDQDIDGSAWSHPQFEK : 0.18

Value of measured cAMP assay IC50, SK-N-MC cells for the entry cysteine-free lipocalin mutein SEQ ID NO: 34 (designed binder, biotinylated by NHS chemistry for capture in SPR) QDSTSDLIPAPPLSKVPLQQNFQDNQFQGKWYVVGWAGNTLLREDKDPIKMQAMIYELKEDKSYNVTWVYFADKKINYHIETFVPGSQPGEFTLGTIKSYPGETPILVRVVSTNYNQHAMVFFKGVNQNREIFEIVLYGRTKELTNELKENFIRFSKSLGLPENHIVFPVPIDQEIDGSAWSHPQFEK : 0.12
